# assay.details: total protein half-life in vivo (active degradation + dilution); higher = more stable protein
# cond: E. coli NCM3722 delta-clpP; growth: N-lim chemostat; doubling time 6 h
test.readout: total protein half-life in vivo (h)
One number for each entry, in h.

// below: answered sequences
1) MSIKLIAVDMDGTFLSDQKTYNRERFMAQYQQMKAQGIRFVVASGNQYYQLISFFPEIANEIAFVAENGGWVVSEGKDVFNGELSKDAFATVVEHLLTRPEVEIIACGKNSAYTLKKYDDAMKTVAEMYYHRLEYVDNFDNLEDIFFKFGLNLSDELIPQVQKALHEAIGDIMVSVHTGNGSIDLIIPGVHKANGLRQLQKLWGIDDSEVVVFGDGGNDIEMLRQAGFSFAMENAGSAVVAAAKYRAGSNNREGVLDVIDKVLKHEAPFDQ    2.03
2) MKKWAVIISAVGLAFAVSGCSSDYVMATKDGRMILTDGKPEIDDDTGLVSYHDQQGNAMQINRDDVSQIIER    5.4
3) MKRTKSIRHASFRKNWSARHLTPVALAVATVFMLAGCEKSDETVSLYQNADDCSAANPGKSAECTTAYNNALKEAERTAPKYATREDCVAEFGEGQCQQAPAQAGMAPENQAQAQQSSGSFWMPLMAGYMMGRLMGGGAGFAQQPLFSSKNPASPAYGKYTDATGKNYGAAQPGRTMTVPKTAMAPKPATTTTVTRGGFGESVAKQSTMQRSATGTSSRSMGG [P0ADT2]    4.17

Item MIFLMTKDSFLLQGFWQLKDNHEMIKINSLSEIKKVGNKPFKVIIDTYHNHILDEEAIKFLEKLDAERIIVLAPYHISKLKAKAPIYFVSRKESIKNLLEITYGKHLPHKNSQLCFSHNQFKIMQLILKNKNESNITSTLNISQQTLKIQKFNIMYKLKLRRMSDIVTLGITSYF : provide total protein half-life in vivo
3.05
